The measurements presented in this section are drawn from ChEMBL document CHEMBL1142692.

target-or-system: Norepinephrine transporter (Rattus norvegicus) (UniProt Q9WTR4)
Sequence (Q9WTR4 as listed by the source): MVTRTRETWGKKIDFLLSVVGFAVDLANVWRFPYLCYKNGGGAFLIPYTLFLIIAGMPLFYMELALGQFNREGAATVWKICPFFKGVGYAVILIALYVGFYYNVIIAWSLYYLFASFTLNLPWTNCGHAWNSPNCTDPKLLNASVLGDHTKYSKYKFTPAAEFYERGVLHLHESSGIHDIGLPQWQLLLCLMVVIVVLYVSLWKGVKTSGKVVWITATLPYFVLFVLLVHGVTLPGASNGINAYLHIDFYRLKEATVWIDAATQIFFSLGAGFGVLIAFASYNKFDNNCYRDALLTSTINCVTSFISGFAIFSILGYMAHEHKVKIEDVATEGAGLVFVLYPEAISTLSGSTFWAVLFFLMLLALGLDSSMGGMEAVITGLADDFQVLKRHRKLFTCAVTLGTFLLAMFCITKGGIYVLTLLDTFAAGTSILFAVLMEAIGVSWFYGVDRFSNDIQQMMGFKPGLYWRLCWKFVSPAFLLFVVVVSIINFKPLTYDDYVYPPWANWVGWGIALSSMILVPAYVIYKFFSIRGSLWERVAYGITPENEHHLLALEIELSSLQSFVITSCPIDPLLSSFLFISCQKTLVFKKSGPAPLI
experiment-notes: Percent inhibition of [3H]nisoxetine binding to norepinephrine transporter at 10 uM
The entries below are paired with their reported inhibition.
Write the answer as a number in %, unit excluded.

Consider the following illustrative entries.
>  <compound-structure-string>
CCOC(=O)C1(c2ccc(F)cc2)CCN(C)CC1

>  <inhibition, %>
71.9

$$$$
>  <compound-structure-string>
CN1CCC(C#N)(c2ccc(Cl)cc2)CC1

>  <inhibition, %>
106

$$$$
>  <compound-structure-string>
CN1CCC(C#N)(c2ccc3ccccc3c2)CC1

>  <inhibition, %>
88.1

$$$$
>  <compound-structure-string>
CCOC(=O)C1(c2ccc(C)cc2)CCN(C)CC1

>  <inhibition, %>
57.6

$$$$
>  <compound-structure-string>
CN1CCC(C#N)(c2ccc(Cl)c(Cl)c2)CC1

>  <inhibition, %>
94.1

$$$$

Given Cc1ccc(C2(C#N)CCN(C)CC2)cc1 , report its inhibition on Norepinephrine transporter (Rattus norvegicus) (UniProt Q9WTR4).
103

---

experiment-notes: Ratio of binding affinity of mu-opioid receptor and serotonin transporter
Measured Ratio of individual entries

>  <compound-structure-string>
CCOC(=O)C1(c2ccc(I)cc2)CCN(C)CC1

>  <property-measured>
Ratio

>  <measurement>
111

$$$$

Read the entry CN1CCC(C#N)(c2ccc(I)cc2)CC1 and write its reported Ratio.
40.2

Answer with reported Ratio of CCOC(=O)C1(c2ccc(C)cc2)CCN(C)CC1
1.66

Consider the molecule CCOC(=O)C1(c2ccc(Cl)c(Cl)c2)CCN(C)CC1 . State its measured Ratio.
109

Tell me Ratio reported for CN1CCC(C#N)(c2ccc(Cl)cc2)CC1
0.18

Return Ratio (reported value) for this molecule: CCOC(=O)C1(c2ccc3ccccc3c2)CCN(C)CC1
282

# return recorded Ratio for input CN1CCC(C#N)(c2ccc(Cl)c(Cl)c2)CC1
49.7

Give Ratio for the following molecule: CCOC(=O)C1(c2ccc(Cl)cc2)CCN(C)CC1
15.9

Retrieve Ratio measured for CN1CCC(C#N)(c2ccc3ccccc3c2)CC1 and print it.
123

Give Ratio for the following molecule: Cc1ccc(C2(C#N)CCN(C)CC2)cc1
2.96

---

target-or-system: Monoamine transporters; serotonin & dopamine (Homo sapiens) (UniProt P31645+Q01959)
Sequence (P31645 whole entry, looked up): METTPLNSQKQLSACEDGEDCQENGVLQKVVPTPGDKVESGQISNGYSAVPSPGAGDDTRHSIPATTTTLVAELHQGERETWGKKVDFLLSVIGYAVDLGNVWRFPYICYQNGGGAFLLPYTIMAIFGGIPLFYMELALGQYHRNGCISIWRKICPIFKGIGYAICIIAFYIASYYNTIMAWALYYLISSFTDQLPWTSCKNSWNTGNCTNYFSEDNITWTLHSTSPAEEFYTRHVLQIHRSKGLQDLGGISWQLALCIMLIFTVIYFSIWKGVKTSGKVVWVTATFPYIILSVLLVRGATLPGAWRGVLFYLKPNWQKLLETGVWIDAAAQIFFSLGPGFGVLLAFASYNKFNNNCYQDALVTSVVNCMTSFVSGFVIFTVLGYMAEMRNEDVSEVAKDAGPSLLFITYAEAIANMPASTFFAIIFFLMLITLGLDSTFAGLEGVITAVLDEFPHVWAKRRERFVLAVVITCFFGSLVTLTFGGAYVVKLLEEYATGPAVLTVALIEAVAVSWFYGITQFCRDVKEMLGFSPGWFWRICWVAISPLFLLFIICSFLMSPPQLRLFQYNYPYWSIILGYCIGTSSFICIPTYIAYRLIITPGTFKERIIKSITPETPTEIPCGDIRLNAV
Sequence (Q01959 whole entry, looked up): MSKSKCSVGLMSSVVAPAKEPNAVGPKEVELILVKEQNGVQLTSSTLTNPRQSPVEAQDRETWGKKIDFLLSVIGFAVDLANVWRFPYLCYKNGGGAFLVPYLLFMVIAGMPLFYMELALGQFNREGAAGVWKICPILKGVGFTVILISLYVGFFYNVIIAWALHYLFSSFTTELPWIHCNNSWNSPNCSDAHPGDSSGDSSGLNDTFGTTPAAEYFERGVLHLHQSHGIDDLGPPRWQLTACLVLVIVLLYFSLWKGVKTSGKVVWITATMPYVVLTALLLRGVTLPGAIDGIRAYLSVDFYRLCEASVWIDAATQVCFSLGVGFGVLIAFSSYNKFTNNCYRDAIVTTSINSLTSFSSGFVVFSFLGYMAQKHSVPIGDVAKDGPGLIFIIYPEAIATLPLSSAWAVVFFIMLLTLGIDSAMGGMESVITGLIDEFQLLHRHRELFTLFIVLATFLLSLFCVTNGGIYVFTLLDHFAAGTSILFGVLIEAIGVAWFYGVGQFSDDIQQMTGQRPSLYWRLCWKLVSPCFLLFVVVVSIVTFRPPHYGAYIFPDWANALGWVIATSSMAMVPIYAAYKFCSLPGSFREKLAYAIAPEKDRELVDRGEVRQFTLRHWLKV
experiment-notes: Ratio of binding affinity of dopamine and serotonin transporters
Format: protein assay
Note to self: use TRUE only for Ratio readings below 10; a reading exactly at 10 still gets FALSE.

>  <compound-structure-string>
CN1CCC(C#N)(c2ccc(Cl)cc2)CC1

>  <assigned-label>
TRUE

$$$$

In the record for CCOC(=O)C1(c2ccc(Cl)c(Cl)c2)CCN(C)CC1 , is Ratio less than 10?
TRUE

Determine if CN1CCC(C#N)(c2ccc3ccccc3c2)CC1 shows Ratio strictly lower than 10.
FALSE

Could you please tell me whether Ratio recorded for CCOC(=O)C1(c2ccc3ccccc3c2)CCN(C)CC1 is less than 10?
FALSE

Does the reported Ratio of CCOC(=O)C1(c2ccc(C)cc2)CCN(C)CC1 stay below 10?
TRUE

# strict comparison: is reported Ratio < 10? input = Cc1ccc(C2(C#N)CCN(C)CC2)cc1
TRUE

Confirm or reject: Ratio of CN1CCC(C#N)(c2ccc(I)cc2)CC1 lies strictly below 10
FALSE

Is 10 strictly greater than the compound's reported Ratio? compound: CCOC(=O)C1(c2ccc(Cl)cc2)CCN(C)CC1
FALSE
